Where these numbers come from: patent US10392422B2

# MIC per record follows
# Test system: MRSA COL (NRS100)
# assay-info: MIC, broth micro-dilution technique (CLSI)
# Assay type: cell-based, Staphylococcus aureus
# assay-context: Staphylococcus aureus, 22 h, read-out: MIC (μg/mL) (COL)
# Experimental: In vitro antimicrobial activity of each compound was determined by measuring minimal inhibitor concentrations (MICs) using the broth micro-dilution technique as approved by the Clinical and Laboratory Standards Institute (CLSI) (Methods for Dilution Antimicrobial Susceptibility Tests for Bacteria that Grow Aerobically; Approved Standard—Eighth Edition. CLSI document M07-A8. Wayne, Pa.: Clinical and Laboratory Standards; 2009). […]
Dear colleague, please return just the value in µg/mL, with no unit written.

{"columns": ["input-smiles", "MIC (µg/mL)"],
 "data": [
  ["CC(=O)[C@H](C)NC(=O)[C@@H]1Cc2ccc(O)c(c2)-c2cc(ccc2OCCN)[C@H](N(C)C(=O)[C@H](CCCCN)NC(=O)c2ccc(-c3ccc(Cl)cc3)cc2)C(=O)N[C@@H](C)C(=O)N1", 0.5],
  ["C[C@H](NC(=O)[C@@H]1Cc2ccc(O)c(c2)-c2cc(ccc2O)[C@H](N(C)C(=O)[C@H](CCCCN)NC(=O)c2ccc(-c3ccc(Cl)cc3)cc2)C(=O)N[C@@H](C)C(=O)N1)C(=O)CO", 0.5],
  ["CCCCCCCCCCCC(=O)N[C@@H](CCN)C(=O)N(C)[C@@H]1C(=O)N[C@@H](C)C(=O)N[C@H](C(=O)O)Cc2ccc(OCCN)c(c2)-c2cc1ccc2OCCN", 0.13]
]}

For this molecule ( "CC(=O)[C@H](C)NC(=O)[C@@H]1Cc2ccc(O)c(c2)-c2cc(ccc2OCC(=O)O)[C@H](N(C)C(=O)[C@H](CCCCN)NC(=O)c2ccc(-c3ccc(Cl)cc3)cc2)C(=O)N[C@@H](C)C(=O)N1" ), measured MIC is 13

// MIC lookup, molecule = "CCCCc1ccc(-c2ccc(C(=O)N[C@@H](CCCN)C(=O)N(C)[C@@H]3C(=O)N[C@@H](C)C(=O)N[C@H](C(=O)O)Cc4ccc(OCCN)c(c4)-c4cc3ccc4OCCN)cc2)cc1" , result: 0.063

---

# Tested on: MRSA COL (NRS100)
# assay-info: MIC, broth micro-dilution technique (CLSI)
# Format: cell-based, Staphylococcus aureus
# assay-context: Staphylococcus aureus, 22 h, read-out: MIC (μg/mL) (COL)
assay-metric: MIC (µg/mL)
Just the number please, in µg/mL, no unit attached.

Answered examples (2):
{"columns": ["compound", "unit-string", "MIC"],
 "data": [
  ["CCCCCCCCCCNCCC(=O)N[C@@H](CCCCN)C(=O)N(C)[C@@H]1C(=O)N[C@@H](C)C(=O)N[C@H](C(=O)N[C@@H](C)C(C)=O)Cc2ccc(O)c(c2)-c2cc1ccc2OCCN [Compound 115]", "µg/mL", 0.13],
  ["CCCCCCCCCCNCCC(=O)N[C@@H](CCCCN)C(=O)N(C)[C@@H]1C(=O)N[C@@H](C)C(=O)N[C@H](C(=O)N[C@@H](C)C(C)=O)Cc2ccc(O)c(c2)-c2cc1ccc2O [Compound 114]", "µg/mL", 1]
]}

MIC recorded for this compound, CCCCCCCCCCCCCC(=O)N[C@@H](CCCN)C(=O)N(C)[C@@H]1C(=O)N[C@@H](C)C(=O)N[C@H](C(=O)O)Cc2ccc(OCCN)c(c2)-c2cc1ccc2OCCN [Compound 303] , is 0.023

For reference, reported MIC for CCCCCCCCCCNCCS(=O)(=O)N[C@@H](CCCN)C(=O)N(C)[C@@H]1C(=O)N[C@@H](C)C(=O)N[C@H](C(=O)N[C@@H](C)C(C)=O)Cc2ccc(O)c(c2)-c2cc1ccc2O [Compound 219] stands at 0.13

The recorded MIC for C[C@@H]1NC(=O)[C@@H](N(C)C(=O)[C@H](CCCCN)NC(=O)c2ccc(-c3ccc(Cl)cc3)cc2)c2ccc(OCCN)c(c2)-c2cc(ccc2OCCN)C[C@@H](C(=O)NCB(O)O)NC1=O [Compound 311] is 0.13

For reference, reported MIC for C[C@@H]1NC(=O)[C@@H](N(C)C(=O)[C@H](CCCCN)NC(=O)c2ccc(Oc3ccc(Cl)cc3)cc2)c2ccc(OCCN)c(c2)-c2cc(ccc2OCCN)C[C@@H](C(=O)O)NC1=O [Compound 285] stands at 0.5

According to the records, this compound C[C@@H]1NC(=O)[C@@H](N(C)C(=O)[C@H](CCCCN)NC(=O)c2ccc(-c3ccc(Cl)cc3)cc2)c2ccc(O)c(c2)-c2cc(ccc2O)C[C@@H](C(=O)N[C@@H](C)C(=O)C(=O)O)NC1=O [Compound 140] displays MIC of 8

Quick note, MIC for CCCCCCCCCCNCCC(=O)N(C)[C@@H]1C(=O)N[C@@H](C)C(=O)N[C@H](C(=O)N[C@@H](C)C(C)=O)Cc2ccc(O)c(c2)-c2cc1ccc2O [Compound 196] landed at 1

Record summary for C[C@@H]1NC(=O)[C@@H](N(C)C(=O)[C@H](CCCCN)NC(=O)c2ccc(-c3ccc(Cl)cc3)cc2)c2ccc(O)c(c2)-c2cc(ccc2O)C[C@@H](C(=O)N[C@@H](C)/C=C\S(C)(=O)=O)NC1=O [Compound 145] : reported MIC = 64

MIC reading for C[C@@H]1NC(=O)[C@@H](N(C)C(=O)[C@H](CCCCN)NC(=O)c2ccc(/C=C/c3ccccc3)cc2)c2ccc(OCCN)c(c2)-c2cc(ccc2OCCN)C[C@@H](C(=O)O)NC1=O [Compound 281] : 1

Reported MIC of CCCCCCCCCCNCCC(=O)N[C@@H](CCCCN)C(=O)N(C)[C@@H]1C(=O)N[C@@H](C)C(=O)N[C@H](C(=O)N[C@@H](C)C(=O)COC(C)=O)Cc2ccc(O)c(c2)-c2cc1ccc2OCCN [Compound 116] : 0.063

C[C@@H]1NC(=O)[C@@H](N(C)C(=O)[C@H](CCCCN)NC(=O)c2ccc(-c3cc(Cl)cc(Cl)c3)cc2)c2ccc(OCCN)c(c2)-c2cc(ccc2OCCN)C[C@@H](C(=O)O)NC1=O [Compound 280] has a reported MIC of 0.38

Lookup result for C[C@@H]1NC(=O)[C@@H](N(C)C(=O)[C@H](CCCCN)NC(=O)c2ccc(-c3ccc(C(F)(F)F)cc3)cc2)c2ccc(OCCN)c(c2)-c2cc(ccc2OCCN)C[C@@H](C(=O)O)NC1=O [Compound 279] ; measured MIC: 0.5

// MIC value for CCCCc1ccc(-c2ccc(C(=O)N[C@@H](CN)C(=O)N(C)[C@@H]3C(=O)N[C@@H](C)C(=O)N[C@H](C(=O)N[C@@H](C)B4O[C@@H]5C[C@@H]6C[C@@H](C6(C)C)[C@]5(C)O4)Cc4ccc(OCCN)c(c4)-c4cc3ccc4OCCN)cc2)cc1 [Compound 317] : 0.063

Looking up CCCCCCCCc1ccc(C(=O)N(C)[C@@H]2C(=O)N[C@@H](C)C(=O)N[C@H](C(=O)NCB3O[C@@H]4C[C@@H]5C[C@@H](C5(C)C)[C@]4(C)O3)Cc3ccc(OCCN)c(c3)-c3cc2ccc3OCCN)cc1 [Compound 320] , I found its MIC recorded as 2

Value of measured MIC for the entry CCCCc1ccc(-c2ccc(C(=O)N[C@@H](CCCCN)C(=O)N(C)[C@@H]3C(=O)N[C@@H](C)C(=O)N[C@H](C(=O)O)Cc4ccc(OCCN)c(c4)-c4cc3ccc4OCCN)cc2)cc1 [Compound 294] : 0.063

Please fill in: MIC reported for CCCCCCCCCCNCCC(=O)N[C@@H](CCCCN)C(=O)N(C)[C@@H]1C(=O)N[C@@H](C)C(=O)N[C@H](C(=O)N[C@@H](C)C(C)=O)Cc2ccc(OC3O[C@H](CO)[C@@H](O)[C@H](O)[C@H]3N)c(c2)-c2cc1ccc2OC1O[C@H](CO)[C@@H](O)[C@H](O)[C@H]1N (stereo partly drawn) [Compound 340] = 2

MIC for CCCCCCCCCCCCCC(=O)N[C@@H](CCN)C(=O)N(C)[C@@H]1C(=O)N[C@@H](C)C(=O)N[C@H](C(=O)N[C@@H](C)B2O[C@@H]3C[C@@H]4C[C@@H](C4(C)C)[C@]3(C)O2)Cc2ccc(OCCN)c(c2)-c2cc1ccc2OCCN [Compound 325] is 0.023

---

# System: Methicillin Resistant Staphylococcus aureus strain USA 300 (NRS384)
# assay-info: MIC, broth micro-dilution technique (CLSI)
# Type: cell-based
# assay-context: Staphylococcus aureus, 22 h, read-out: MIC (μg/mL) S. aureus
assay-metric: MIC (µg/mL)
// note: answer is a bare numeric in µg/mL

Lab book: MIC of "CCCCCCCCCCNCCC(=O)N(C)[C@@H]1C(=O)N[C@@H](C)C(=O)N[C@H](C(=O)N[C@@H](C)C(C)=O)Cc2ccc(O)c(c2)-c2cc1ccc2O" noted as 4

Just so you know, measured MIC for CC(O)[C@@H]1Cc2ccc(O)c(c2)-c2cc(ccc2O)[C@H](N(C)C(=O)[C@H](CCCCN)NC(=O)c2ccc(-c3ccc(Cl)cc3)cc2)C(=O)N[C@@H](C)C(=O)N1 (stereo partly drawn) came out at 64

# MIC of "C[C@H](NC(=O)[C@@H]1Cc2ccc(OCCN)c(c2)-c2cc(ccc2OCCN)[C@H](N(C)C(=O)[C@H](CCCCN)NC(=O)c2ccc(-c3ccc(Cl)cc3)cc2)C(=O)N[C@@H](C)C(=O)N1)B1O[C@@H]2C[C@@H]3C[C@@H](C3(C)C)[C@]2(C)O1" = 0.5
